System: Escherichia coli TOP10;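 note: peptides expressed intracellularly from a pBAD plasmid library in pooled LB shake-flask culture, induced with 0.3% L-arabinose, DNA abundance read by NGS, three biological replicates, DESeq2 with apeglm shrinkage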
Assay: shrunken log2 fold change of peptide-encoding DNA abundance (4.5 h post-induction vs induction); higher = less antimicrobial activity (less host growth inhibition)
Conditions: time post-induction: 4.5 h; library: site-saturation at positions 5, 18, 19, 20
metric: shrunken log2 fold change
Form: value (number only, do not type unit).

>>> measured_number("RRIRGRPPRLPRPRPRPNWWPRP")
3.32
>>> measured_number("RRIRKRPPRLPRPRPRPAPNPRP")
0.631

Query string: I have this sequence here, RRIRIRPPRLPRPRPRPGMTPRP , and I need its recorded shrunken log2 fold change.
Result string: -0.164

Query string: I have this sequence here, RRIRVRPPRLPRPRPRPRSTPRP , and I need its recorded shrunken log2 fold change.
Result string: 0.0765
